Listed below: CC50 values for each entry.
# Protocol Notes: in vitro
# Condition Info: human

# CC50 (compound: C#Cc1cccc(Nc2ncnc3nc(NC4CC4)ncc23)c1 ) is > 50 µM

Memo: CN(C)CCNc1ncc2c(Nc3cccc4c3CCC4)ncnc2n1 , reported CC50: > 50 µM

The recorded CC50 for CCN(CC)CCNc1ncc2c(Nc3cccc4c3CCC4)ncnc2n1 is > 50 µM

Memo: CCN(CC)CCNc1ncc2c(Nc3cccc4c3CCCC4)ncnc2n1 , reported CC50: > 50 µM

Consider CN(C)CCNc1ncc2c(Nc3cccc4c3CCCC4)ncnc2n1 . Its measured CC50 is > 50 µM

CC50 in this record for C#Cc1cccc(Nc2ncnc3cc4c(cc23)OCCOCCOCCO4)c1 [Icotinib, icotinib, reference compound] : > 100 µM

So for CN1CCN(c2ncc3c(Nc4cccnc4)ncnc3n2)CC1 , the logged CC50 turned out to be > 50 µM

The compound identified as C=CC(=O)Nc1cccc(Oc2nc(Nc3ccc(N4CCN(C)CC4)cc3OC)ncc2Cl)c1 [WZ4002, reference compound] registered its CC50 at > 100 µM

The recorded CC50 for entry c1cc2c(c(Nc3ncnc4nc(NC5CC5)ncc34)c1)CCCC2 equals > 50 µM

Numbers sourced from paper PMC11643962.
